Origin of values: patent US7951829B2

# Tested System: hVR1 (Homo sapiens, UniProt Q8NER1)
# Construct: expressed in transfected cells; host or cells: HEK293
# Sequence (Q8NER1 whole entry): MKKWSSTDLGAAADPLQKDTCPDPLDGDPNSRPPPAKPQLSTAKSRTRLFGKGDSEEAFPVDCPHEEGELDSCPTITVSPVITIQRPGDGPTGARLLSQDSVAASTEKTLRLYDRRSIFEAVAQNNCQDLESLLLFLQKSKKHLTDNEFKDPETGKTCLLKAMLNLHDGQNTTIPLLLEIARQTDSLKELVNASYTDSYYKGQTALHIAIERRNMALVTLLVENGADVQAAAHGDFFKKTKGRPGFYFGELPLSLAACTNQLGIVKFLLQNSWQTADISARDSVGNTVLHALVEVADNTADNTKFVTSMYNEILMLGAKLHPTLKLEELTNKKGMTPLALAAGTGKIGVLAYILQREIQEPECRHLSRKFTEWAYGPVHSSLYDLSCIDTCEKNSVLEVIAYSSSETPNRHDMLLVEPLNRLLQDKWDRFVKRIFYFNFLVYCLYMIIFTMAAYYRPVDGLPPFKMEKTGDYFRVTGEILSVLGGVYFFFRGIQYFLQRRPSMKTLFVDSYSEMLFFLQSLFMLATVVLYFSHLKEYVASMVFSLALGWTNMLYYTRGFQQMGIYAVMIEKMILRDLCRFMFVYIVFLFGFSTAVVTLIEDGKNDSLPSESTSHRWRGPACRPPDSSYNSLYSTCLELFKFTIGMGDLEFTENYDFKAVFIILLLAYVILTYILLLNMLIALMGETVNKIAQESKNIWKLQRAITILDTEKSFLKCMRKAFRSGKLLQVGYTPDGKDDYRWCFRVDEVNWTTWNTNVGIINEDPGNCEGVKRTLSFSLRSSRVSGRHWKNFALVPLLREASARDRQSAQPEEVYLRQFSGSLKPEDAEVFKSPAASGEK
# Test Method Notes: Human VR1 (hVR1) Functional Assay (FLIPR intracellular calcium, capsaicin challenge)
# Assay type: cell-based
# Recorded Conditions: test concentration 1 μM; capsaicin 0.030 μM; HEK293 cells expressing hVR1
Assay Readout: inhibition at 1 µM (%)

{"columns": ["Record Smiles", "inhibition at 1 µM, %"],
 "data": [
  ["CNS(=O)(=O)c1ccccc1-c1ccc2[nH]c(/C=C/c3ccc(C(F)(F)F)c(F)c3)nc2c1", 100],
  ["CS(=O)(=O)Nc1ccccc1-c1ccc2[nH]c(/C=C/c3ccc(Cl)cc3)nc2c1", 100],
  ["CC(C)(C)c1ccc(/C=C/c2nc3cc(-c4ccccc4NS(C)(=O)=O)ccc3[nH]2)cc1", 99],
  ["CC(C)(C)OC(=O)Nc1ccccc1-c1ccc2[nH]c(/C=C/c3ccc(C(C)(C)C)cc3)nc2c1", 94],
  ["NS(=O)(=O)c1ccccc1-c1ccc2[nH]c(/C=C/c3ccc(C(F)(F)F)cc3F)nc2c1", 99],
  ["NS(=O)(=O)c1ccccc1-c1ccc2[nH]c(/C=C/c3ccc(Cl)c(C(F)(F)F)c3)nc2c1", 100],
  ["CNS(=O)(=O)c1ccccc1-c1ccc2[nH]c(/C=C/c3cc(F)cc(F)c3)nc2c1", 99],
  ["NS(=O)(=O)c1ccccc1-c1ccc2[nH]c(/C=C/c3ccc(F)c(F)c3)nc2c1", 99]
]}
